Reference source for all entries: patent US20130289246A1

Reported OD values for the following binders.
Biological target: soluble 2004 H5 HA (Influenza A virus (H5N1, 2004))
Experiment: ELISA, supernate
MEASURE_NAME: OD (OD)

BINDER	RECORDED_VALUE
mAb 3E22 (antibody, V domains shown) VH: EVQLVESGAEVKKPGASVKVSCKASGYTFSRYYIHWVRQAPGQELEWMGWINPDSGDTNYAQKFRGRVTMARDTSISTVYMELNSLRYDDTAVYFCARIIWSSSGMDVWGQGTTVTVS VL: QSALTQPASVSGSPGQSITISCTGTSSDVGSYNLVSWYQQHPGKAPKLMIYEVSKRPSGVSNRFSGSKSGNTASLTISGLQAEDEADYYCHLYVGSSNWVFGGGTKLAVLG	1.57
mAb 25J3 (antibody, V domains shown) VH: QVQLQESGPGLVRPSETLSLTCNVSGDSINDYYWSWIRQPPGKGLEWIGYIYYSGSTNYNPSLNSRVTISVEMSKNQFSLILNSVTAADTAVYYCARVDYDSGGSFDPWGQGTLVTVS VL: QSVLTQPPSVSGAPGQRVTISCTGSSSNIGAGYDVHWYQQLPGTAPKLLIYGNSNRPSGVPDRFSGSKSGTSASLAITGLQAEDEADFYCQSYDSRLSGYVFGTGTKVTVLG	0.07
mAb 2O10 (antibody, V domains shown) VH: EVQLVESGGGLVQPGGSLRLSCAASGFTFNSYWMTWVRQAPGKGLEWVANINQDGSEKFFVDSVKGRFTISRDNAKTSLYLQMNSLRVEDTAVYYCAREGAPYDTYYYYYAMDVWGQGTTVTVS VL: QSVLTQPPSVSGAPGQRVTISCTGTSSNIGAGYGVHWYQQLPGAAPKLLVYGNSNRPSGVPDRFSGSKSGTSASLAITGLQAEDEADYYCQSYDISLSGSNVFGTGTKVTVLG	0.072
